# assayed.target: CCR2 receptor (Homo sapiens)
# Sequence (P41597 whole entry): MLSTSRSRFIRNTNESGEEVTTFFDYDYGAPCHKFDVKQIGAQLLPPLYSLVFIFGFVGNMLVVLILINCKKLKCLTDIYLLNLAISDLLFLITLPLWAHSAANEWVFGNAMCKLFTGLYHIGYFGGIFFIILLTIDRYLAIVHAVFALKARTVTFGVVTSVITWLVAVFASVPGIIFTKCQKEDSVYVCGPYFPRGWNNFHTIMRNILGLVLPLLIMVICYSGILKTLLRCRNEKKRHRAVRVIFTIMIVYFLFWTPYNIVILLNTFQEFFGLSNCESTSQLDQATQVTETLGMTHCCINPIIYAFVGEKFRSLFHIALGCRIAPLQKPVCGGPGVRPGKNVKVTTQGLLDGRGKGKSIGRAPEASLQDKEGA
# assay.details: Calcium activity assay on FLIPR Tetra in HEK-Gqi5 cells stably expressing CCR2
Define the label as True when IC50 is strictly less than 600 nM and as False in all remaining cases.

Please review the entries below; each comes with its answer.
COC(=O)c1ccccc1C[S+]([O-])c1ccc(F)cc1NS(=O)(=O)c1cc2ccccc2o1 (stereo not drawn) = True
CC(C)(C)OC(=O)CNC(=O)c1ccc(CSc2ccc(Cl)cc2NS(=O)(=O)c2ccc(Cl)c(C(F)(F)F)c2)cc1 = False
O=C(O)c1ccccc1C[S+]([O-])c1ccc(Cl)cc1NS(=O)(=O)c1ccc(Cl)c(C(F)(F)F)c1 (stereo not drawn) = False
O=C(O)CCSc1ccc(Cl)cc1NS(=O)(=O)c1cc2ccccc2o1 = True
COC(=O)CCS(=O)(=O)c1ccc(Cl)cc1NS(=O)(=O)c1ccc(Cl)cc1F = True

Qu. Please let me know if O=C(NCCN1CCCC1)c1cccc(CSc2ccc(Cl)cc2NS(=O)(=O)c2ccc(Cl)c(C(F)(F)F)c2)c1 shows IC50 below 600 nM.
Ans. False

Qu. Please let me know if O=C(O)c1ccccc1CS(=O)(=O)c1ccc(F)cc1NS(=O)(=O)c1cc2ccccc2o1 shows IC50 below 600 nM.
Ans. False

Qu. Please let me know if CC(=O)Nc1cccc(CSc2ccc(Cl)cc2N(C(C)=O)S(=O)(=O)c2cc3ccccc3o2)c1 shows IC50 below 600 nM.
Ans. False
